Assign solubility thermodynamic at 48 h to each entry below.
Experiment: Aqueous solubility of the compound in buffer at pH 2.0 after 48 hrs UV spectroscopy based shake flask method
Type: physicochemical
Respond with the bare value in µg/mL.

-- ask Give solubility thermodynamic at 48 h for O=C(Nc1ccc(Oc2ncnc3cc(Cl)ccc23)nc1)c1ccc(-c2ccccn2)s1
-- reply 12.7

-- ask Quickly give me recorded solubility thermodynamic at 48 h for O=C(CSCC(=O)Nc1ccc(OC(F)(F)F)cc1)NNC(=S)Nc1ccccc1
-- reply 8.2

---

Test: Aqueous solubility of the compound in buffer at pH 6.4 after 48 hrs UV spectroscopy based shake flask method
Format: physicochemical
value_type: solubility thermodynamic at 48 h (µg/mL)
Output spec: scalar in µg/mL, unitless text.

-- ask Entry O=C(Nc1ccc(Oc2ncnc3cc(Cl)ccc23)nc1)c1ccc(-c2ccccn2)s1 needs its solubility thermodynamic at 48 h filled in; supply it.
-- reply 10.1

-- ask Give solubility thermodynamic at 48 h for O=C(CSCC(=O)Nc1ccc(OC(F)(F)F)cc1)NNC(=S)Nc1ccccc1
-- reply 13.1

-- ask Recall and state the measured solubility thermodynamic at 48 h for O=C1Nc2ccc(Cl)cc2[C@@](C#CC2CC2)(C(F)(F)F)O1 [EFAVIRENZ] .
-- reply 68.3

-- ask // fetch solubility thermodynamic at 48 h given entry CN1C(C(=O)Nc2ccccn2)=C(O)c2ccccc2S1(=O)=O [PIROXICAM]
-- reply 7.3

---

Tested on: dengue virus type 2
Assay: Antiviral activity against DENV2 infected in human A549 or golden hamster BHK21 cells preincubated with viral inoculum for 30 mins followed by viral inoculum removal after 1 hr and subsequently incubated with fresh medium containing compound and measured 8 hrs post-infection by luciferase reporter gene assay
Type: functional, cell-based
value_type: pEC50
Interpret pEC50 as the negative base-10 log of the concentration measured in mol/L.

-- ask Recall and state the measured pEC50 for O=C(Nc1ccc(Oc2ncnc3cc(Cl)ccc23)nc1)c1ccc(-c2ccccn2)s1 .
-- reply 5.51

-- ask Provide one value: measured pEC50 of O=C(NC(=S)N1CCc2ccccc21)c1ccc(C#Cc2ccccc2)nc1
-- reply 4.54

-- ask Indicate the recorded pEC50 value for this molecule: O=C(CSCC(=O)Nc1ccc(OC(F)(F)F)cc1)NNC(=S)Nc1ccccc1
-- reply 5.29

-- ask In one line, give reported pEC50 of the entry O=C(Nc1ccccc1OCc1ccc(Cl)c(Cl)c1)c1ccco1 .
-- reply 4.64

Origin of the recorded values: ChEMBL document CHEMBL4052729
